The reported numbers originate from patent US20220204611A1.

Biological target: T1, recombinant soluble human TREM2 protein (human TREM2 ECD-FlagHis) (human, UniProt Q9NZC2 19-174)
T1 sequence: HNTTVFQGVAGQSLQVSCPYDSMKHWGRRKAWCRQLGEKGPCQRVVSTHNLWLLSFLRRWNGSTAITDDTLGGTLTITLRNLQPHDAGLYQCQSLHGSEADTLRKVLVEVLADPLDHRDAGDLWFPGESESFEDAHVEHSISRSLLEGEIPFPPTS
Assay: Octet BLI binning; competitor: load Ab 26F2
Please provide measured sandwich binding signal for the entries that follow.
Keep it simple and answer with nothing but the number.

Provide sandwich binding signal value for the following binder: 5E3 (antibody, human IgG2, V domains shown, human IgG2 from hybridoma) VH: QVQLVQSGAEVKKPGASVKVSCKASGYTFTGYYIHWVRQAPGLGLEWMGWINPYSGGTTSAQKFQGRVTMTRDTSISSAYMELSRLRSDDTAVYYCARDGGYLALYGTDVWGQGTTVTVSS VL: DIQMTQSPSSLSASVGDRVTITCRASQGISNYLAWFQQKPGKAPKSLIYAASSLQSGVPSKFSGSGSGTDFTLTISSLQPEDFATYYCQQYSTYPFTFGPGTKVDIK
-0.045

Query sandwich binding signal for 24F4 (antibody, human IgG2, V domains shown, human IgG2 from hybridoma) VH: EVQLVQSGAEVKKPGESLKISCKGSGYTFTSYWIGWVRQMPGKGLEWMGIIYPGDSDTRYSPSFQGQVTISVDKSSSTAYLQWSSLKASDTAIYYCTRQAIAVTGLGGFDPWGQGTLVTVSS VL: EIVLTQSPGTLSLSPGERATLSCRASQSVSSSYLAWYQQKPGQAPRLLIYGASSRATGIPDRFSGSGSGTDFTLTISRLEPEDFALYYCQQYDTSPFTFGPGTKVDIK
0.282

Give a short answer stating reported sandwich binding signal for 16B8 (antibody, human IgG4, V domains shown, human IgG4 (G4) from hybridoma) VH: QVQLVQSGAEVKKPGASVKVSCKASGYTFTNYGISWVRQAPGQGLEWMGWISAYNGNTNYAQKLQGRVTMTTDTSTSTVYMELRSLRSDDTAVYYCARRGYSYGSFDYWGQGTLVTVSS VL: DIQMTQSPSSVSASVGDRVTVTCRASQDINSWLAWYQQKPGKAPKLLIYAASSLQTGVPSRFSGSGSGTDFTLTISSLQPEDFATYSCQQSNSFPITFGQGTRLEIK .
0.031

Look up sandwich binding signal of 13E7 (antibody, human IgG2, V domains shown, human IgG2 from hybridoma) VH: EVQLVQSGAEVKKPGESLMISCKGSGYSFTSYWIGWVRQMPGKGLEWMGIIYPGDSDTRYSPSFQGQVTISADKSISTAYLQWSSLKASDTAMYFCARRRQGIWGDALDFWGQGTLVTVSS VL: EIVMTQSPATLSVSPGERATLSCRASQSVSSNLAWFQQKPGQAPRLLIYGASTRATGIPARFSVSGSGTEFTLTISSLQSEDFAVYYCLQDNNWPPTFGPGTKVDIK and report it.
0.363

Specify sandwich binding signal for 4G10 (antibody, human IgG2, V domains shown, human IgG2 from hybridoma) VH: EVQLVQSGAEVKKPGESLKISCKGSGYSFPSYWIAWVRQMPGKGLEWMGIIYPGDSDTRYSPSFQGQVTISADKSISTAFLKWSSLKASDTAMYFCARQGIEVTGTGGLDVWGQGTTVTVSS VL: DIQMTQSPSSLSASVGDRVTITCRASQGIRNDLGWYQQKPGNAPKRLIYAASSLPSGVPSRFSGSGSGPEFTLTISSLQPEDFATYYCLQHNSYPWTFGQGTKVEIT and stop.
0.18
